Test system: Vero E6 infected with SARS-CoV-2
Test protocol: inhibition of SARS-CoV-2 cytopathic effect; higher = more antiviral protection, active = above 15
Recorded conditions: 1 nM; 48 h
Measured endpoint: inhibition of SARS-CoV-2 cytopathic effect (%)

* CCCCCCCCCCC(=O)O[C@H]1CC[C@H]2[C@@H]3CCC4=CC(=O)CC[C@]4(C)[C@H]3CC[C@]12C [Testosterone (undecanoate)] | 1.81
* c1cnc(SCc2cccnc2)nc1 | 1.94
* CC1=C(/C=C/C(C)=C/C=C/C(C)=C/C(=O)O)C(C)(C)CCC1 | 1
* COc1ccnc(C[S+]([O-])c2nc3cc(OC(F)F)ccc3[nH]2)c1OC (centres undefined) | -1.17
* CCNC(=O)[C@H]1O[C@@H](n2cnc3c(N)nc(NCCc4ccc(CCC(=O)O)cc4)nc32)[C@H](O)[C@@H]1O | -1.55
* CCn1cc(C(=O)O)c(=O)c2cnc(N3CCNCC3)nc21 | 0.65
* CC(C)(NS(=O)(=O)c1ccc(Oc2ccc(F)cc2)cc1)C(=O)NO | 3.55
* O=C(c1ccccc1)c1ccc2n1CCC2C(=O)O (centres undefined) | -4.39
* CC(C(=O)O)c1ccc2c(c1)[nH]c1ccc(Cl)cc12 (centres undefined) | 4.44
* O=C(O)C[C@H]1CC[C@H](c2ccc(NC(=O)c3nnc(Nc4ccc(F)c(F)c4)o3)cc2)CC1 | -0.14
* CC[C@H]1[C@@H](O)[C@@H]2[C@H](CC[C@]3(C)[C@@H]([C@H](C)CCOS(=O)(=O)O)CC[C@@H]23)[C@@]2(C)CC[C@@H](O)C[C@@H]12 | 0.86
* O=C(O)C1=CO[C@@H](O[C@@H]2O[C@H](CO)[C@@H](O)[C@H](O)[C@H]2O)[C@@H]2C(CO)=CC[C@H]12 | -0.41
* CCCN(C/C=C/I)C1CCc2cccc(O)c2C1 (centres undefined) [8-hydroxy-PIPAT] | 3.48
* COCCOCCOc1ccc(C2=N[C@@](C)(C(=O)O)CS2)c(O)c1 | -1.16
* CC(=O)C1=C(O)C=C2Oc3c(C(C)=O)c(O)c(C)c(O)c3C2(C)C1=O (stereo not drawn) [usniacin-(+)] | 3.22
* CO[C@H](C(=O)[C@@H](O)[C@@H](C)O)[C@@H]1Cc2cc3cc(O[C@H]4C[C@@H](O[C@H]5C[C@@H](O)[C@H](O)[C@@H](C)O5)[C@@H](O)[C@@H](C)O4)c(C)c(O)c3c(O)c2C(=O)[C@H]1O[C@H]1C[C@@H](O[C@H]2C[C@@H](O[C@H]3C[C@](C)(O)[C@H](O)[C@@H](C)O3)[C@H](O)[C@@H](C)O2)[C@H](O)[C@@H](C)O1 | 2.66
* C[C@](O)(COc1ccc(C#N)cc1)C(=O)Nc1ccc(C#N)c(C(F)(F)F)c1 | -0.2
* CC(C)NC[C@@H](O)COc1ccc(CC(N)=O)cc1 (racemic) [atenolol-(+/-)] | -2.25
* COc1cc2c(NC3CCN(C(C)C)CC3)nc(C3CCCCC3)nc2cc1OCCCN1CCCC1 | 0.58
* N[C@@H](CS)C(=O)O | 1.7
* Nc1c(S(=O)(=O)O)cc(Nc2cccc3ccccc23)c2c1C(=O)c1ccccc1C2=O | -0.33
* CN1Cc2c(N)cccc2C(c2ccccc2)C1 (centres undefined) | 0.22
* NC1=N[C@@](c2cccc(-c3cncnc3)c2)(c2ccnc(C(F)F)c2)c2cccc(F)c21 | 0.77
* O=[N+]([O-])c1cncn1CCN1CCOCC1 | -1.41
* CN1Cc2ccccc2[C@@H]2c3cccc4[nH]cc(c34)C[C@H]21 | 0.05
* Cc1c(C(=O)NCCCO)cnn1-c1nc(-c2cccc(C(F)(F)F)c2)cs1 | 2.55
* Cc1oc(-c2ccccc2)nc1CCOc1ccc(CC2SC(=O)NC2=O)c2sccc12 (centres undefined) | 0.32
* COc1c(Nc2ccc(S(C)(=O)=O)nc2C)ncnc1OC1CCN(C(=O)OC(C)C)CC1 | -1.98
* CCc1nn(CCCN2CCN(c3cccc(Cl)c3)CC2)c(=O)n1CCOc1ccccc1 | -0.85
* CN(C)c1ccc(/C=C2\CCCN=C2c2cccnc2)cc1 | -2.66
* O=C1c2ccccc2-c2c(NCCc3ccccc3)c(=O)[nH]c3cccc1c23 | -0.39
* CN(C)C/C=C/C(=O)Nc1ccc(C(=O)Nc2cccc(Nc3ncc(Cl)c(-c4c[nH]c5ccccc45)n3)c2)cc1 | -0.79
* CC(C)(C)NCc1cc(Nc2ccnc3cc(Cl)ccc23)c2c(c1O)CCCC2 [naphthoquine-phosphate] | -1.58
* CC1=CC(=O)c2ccccc2C1=O | 1
